// data source = PubChem BioAssay (NCATS)

tested system: Glucocorticoid receptor (Homo sapiens)
method notes: qHTS assay for small molecule agonists of glucocorticoid receptor signaling (AID 588532);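 note: 100% = dexamethasone at 0.1 µM and 0% = DMSO only wells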
measurement context: HeLa MMTV-bla, beta-lactamase ratio, agonist, 18 h; hits give high values, percent of dexamethasone control, DMSO zero
Records with an inconclusive call do not appear.
Parameter activation: see the listing below.
Report as a plain number; the unit % is understood.

Reference set, count: 4
{"compound": "CCCCCCCCCCCCCCC(Br)C(=O)O (stereo not drawn)", "tested system": "Glucocorticoid receptor (Homo sapiens)", "output unit": "%", "activation": -1.04}
{"compound": "O=S(=O)(c1ccc(O)cc1)c1ccc(O)cc1", "tested system": "Glucocorticoid receptor (Homo sapiens)", "output unit": "%", "activation": -0.412}
{"compound": "CNP(=O)(OC)Oc1ccc(C(C)(C)C)cc1Cl (stereo not drawn)", "tested system": "Glucocorticoid receptor (Homo sapiens)", "output unit": "%", "activation": 0.207}
{"compound": "CC(Oc1ccc(Cl)cc1Cl)C(=O)O (stereo not drawn)", "tested system": "Glucocorticoid receptor (Homo sapiens)", "output unit": "%", "activation": 6.74}

Ask | Determine from records and report activation for CCOP(=O)(OCC)SCSC(C)(C)C
Reply | -2.2

Ask | For the compound CCCCN(CC)c1c([N+](=O)[O-])cc(C(F)(F)F)cc1[N+](=O)[O-] , give its reported activation.
Reply | -5.8

Ask | Recall and state the measured activation for Clc1ccc(C2(Cn3cncn3)CC(Br)CO2)c(Cl)c1 (stereo not drawn) .
Reply | -0.813

Ask | Give activation for the following compound: Nc1ccc([N+](=O)[O-])cc1Cl
Reply | -4.74

Ask | Find the measured activation of CO/N=C(/C(=O)OC)c1ccccc1COc1ccccc1C and report it.
Reply | -0.293

Ask | Dear colleague, please send me the reported activation for CCOP(=S)(OCC)Oc1cnc2ccccc2n1 when you can.
Reply | -1.45

Ask | Name the recorded activation of the compound listed here: O=[N+]([O-])c1ccc(Oc2ccc(C(F)(F)F)cc2[N+](=O)[O-])cc1
Reply | -2.99

Ask | Return the recorded activation value; entry: CC1CCCCC1NC(=O)Nc1ccccc1 (stereo not drawn)
Reply | -3.51

Ask | Return activation (reported value) for this compound: COc1cc(OC)nc(Sc2cccc(Cl)c2C(=O)O)n1
Reply | 5.02

---

Test system: ICS
method notes: qHTS profiling for inhibitors of Plasmodium falciparum proliferation (AID 504749); note: nearly all actives have a fitted effect of over 60% in size
measurement context: P. falciparum in erythrocytes, SYBR Green DNA, 72 h; series mostly up to 28.7 µM
Inconclusive results are not listed. Calls of active or inactive are those of the source. The call rests on the fitted dose curve; in most records, active means well fitted inhibition curve with a large enough effect; inconclusive means small, poorly fitted or top-dose-only effect; inactive means flat fitted curve, though single readings scatter.
Tick one outcome: active, inactive

The following compounds have reported results that may help.
{"compound": "CCCC(C)C1(CC)C(=O)NC(=S)NC1=O (stereo not given)", "class assignment": "inactive"}
{"compound": "C[C@H](N)Cc1ccccc1", "class assignment": "inactive"}
{"compound": "CC(=O)Oc1ccc2c3c1OC1[C@@H](OC(C)=O)C=C[C@H]4[C@H](C2)N(C)CC[C@]314 (stereo not given in full)", "class assignment": "inactive"}
{"compound": "C[C@@H](N)[C@@H](O)c1ccc(O)c(O)c1", "class assignment": "inactive"}
{"compound": "CCOC(=O)/C=C(C)/C=C/CC(C)CCCC(C)C (stereo not given)", "class assignment": "inactive"}

Ask | # outcome recorded in this test, key = CCOC(=O)c1cncn1[C@@H](C)c1ccccc1
Reply | inactive

Ask | I would be grateful if you could indicate the recorded call for CC1CC[C@@]2(NC1)OC1CC3C4CC[C@@H]5CC(O)CC[C@@]5(C)C4CC[C@]3(C)C1C2C (stereo not given in full) .
Reply | active

Ask | Any idea what this test logged for CCCCCC(O)C1C(=O)OC(C)C(O)\C=C/C=C\C=C/C=C\C=C(\C)C(O)C(O)C(O)CC(O)CC(O)CC(O)CC(O)CC1O (stereo not given) ?
Reply | inactive

Ask | GET /call?item= CCC/C=C/C=C/C(=O)OC1/C(=C/C(=O)OC)CC2CC(C(C)O)OC(=O)CC(O)CC3CC(OC(C)=O)C(C)(C)C(O)(CC4C/C(=C/C(=O)OC)CC(/C=C\C(C)(C)C1(O)O2)O4)O3 (stereo not given) returns the recorded outcome of this test.
Reply | active

Ask | Per the assay record, what outcome was assigned to CC1(C)[C@@H](C=C(Cl)Cl)[C@@H]1C(=O)OCc1c(F)c(F)cc(F)c1F ?
Reply | inactive
